Source listed as ChEMBL document CHEMBL5303573.

- test: The drug is tested on Blautia hansenii strain: DSM20583 for biotransformation. The drug concentrations were measured before and after a 12-h incubation by liquid-chromatography-coupled mass spectrometry (LC–MS)
- conditionsUsed: 2 µM
reportedEndpoint: Bacterial Biotransformation

// below: answered compounds
- compound: "CNC(=C[N+](=O)[O-])NCCSCc1csc(CN(C)C)n1"
  reportedEndpoint: "Bacterial Biotransformation"
  testValue: "Compound metabolized"
- compound: "CC(C)(C)N.CCC[C@H](N[C@@H](C)C(=O)N1[C@H](C(=O)O)C[C@@H]2CCCC[C@@H]21)C(=O)OCC"
  reportedEndpoint: "Bacterial Biotransformation"
  testValue: "Compound NOT metabolized"
- compound: "CNCC[C@H](Oc1cccc2ccccc12)c1cccs1"
  reportedEndpoint: "Bacterial Biotransformation"
  testValue: "Compound metabolized"
- compound: "CC(C)NCC(O)c1ccc(NS(C)(=O)=O)cc1 (centres undefined)"
  reportedEndpoint: "Bacterial Biotransformation"
  testValue: "Compound NOT metabolized"
- compound: "COc1ccc2c(c1)c(CC(=O)O)c(C)n2C(=O)c1ccc(Cl)cc1"
  reportedEndpoint: "Bacterial Biotransformation"
  testValue: "Compound NOT metabolized"

[ask] Give the measured Bacterial Biotransformation for CN1CCC(=C2c3ccccc3CC(=O)c3sccc32)CC1.O=C(O)/C=C/C(=O)O [KETOTIFEN FUMARATE]
[reply] Compound NOT metabolized

[ask] Give the measured Bacterial Biotransformation for CN1CCN(C(=O)O[C@H]2c3nccnc3C(=O)N2c2ccc(Cl)cn2)CC1
[reply] Compound NOT metabolized

###

- conditionsUsed: parabacteroides distasonis, 12 h, 2 µM
- Description: The drug is tested on Parabacteroides distasonis strain: ATCC8503 for biotransformation. The drug concentrations were measured before and after a 12-h incubation by liquid-chromatography-coupled mass spectrometry (LC–MS)
reportedEndpoint: Bacterial Biotransformation

// below: answered compounds
- compound: "C[C@@H]1C[C@H]2[C@@H]3CCC4=CC(=O)C=C[C@]4(C)[C@@]3(F)[C@@H](O)C[C@]2(C)[C@@]1(O)C(=O)CO [DEXAMETHASONE]"
  Bacterial Biotransformation: "Compound NOT metabolized"
- compound: "Cc1cc2c(cc1S(N)(=O)=O)S(=O)(=O)CCC2"
  Bacterial Biotransformation: "Compound NOT metabolized"
- compound: "COc1ccc2c(c1OC)C(=O)O[C@@H]2[C@H]1c2c(cc3c(c2OC)OCO3)CCN1C [NOSCAPINE]"
  Bacterial Biotransformation: "Compound metabolized"
- compound: "CCOC(=O)[C@H](CCc1ccccc1)N[C@@H](C)C(=O)N1[C@H](C(=O)O)C[C@H]2CCCC[C@@H]21 [TRANDOLAPRIL]"
  Bacterial Biotransformation: "Compound metabolized"
- compound: "CC(C)(Oc1ccc(CCNC(=O)c2ccc(Cl)cc2)cc1)C(=O)O [BEZAFIBRATE]"
  Bacterial Biotransformation: "Compound metabolized"
- compound: "CCc1nc(N)nc(N)c1-c1ccc(Cl)cc1 [PYRIMETHAMINE]"
  Bacterial Biotransformation: "Compound NOT metabolized"

[ask] Give the measured Bacterial Biotransformation for Cc1ccc(S(=O)(=O)NC(=O)NN2CCCCCC2)cc1 [TOLAZAMIDE]
[reply] Compound metabolized

[ask] Give the measured Bacterial Biotransformation for Br.CN1CCC[C@@H]1Cc1c[nH]c2ccc(CCS(=O)(=O)c3ccccc3)cc12 [ELETRIPTAN HYDROBROMIDE]
[reply] Compound NOT metabolized

###

- conditionsUsed: bacteroides fragilis, 12 h, 2 µM
- Description: The drug is tested on Bacteroides fragilis strain: NCTC 9343 for biotransformation. The drug concentrations were measured before and after a 12-h incubation by liquid-chromatography-coupled mass spectrometry (LC–MS)
reportedEndpoint: Bacterial Biotransformation

// below: answered compounds
- compound: "CN1CCc2cccc3c2[C@H]1Cc1ccc(O)c(O)c1-3"
  Bacterial Biotransformation: "Compound NOT metabolized"
- compound: "COc1c2occc2cc2ccc(=O)oc12"
  Bacterial Biotransformation: "Compound metabolized"
- compound: "CCc1oc2ccccc2c1C(=O)c1cc(Br)c(O)c(Br)c1"
  Bacterial Biotransformation: "Compound NOT metabolized"
- compound: "Fc1ccc([C@@H]2CCNC[C@H]2COc2ccc3c(c2)OCO3)cc1"
  Bacterial Biotransformation: "Compound NOT metabolized"

[ask] Give the measured Bacterial Biotransformation for C[C@]12CCC(=O)C=C1[C@@H]1C[C@@H]1[C@H]1[C@@H]3[C@@H]4C[C@@H]4[C@@]4(CCC(=O)O4)[C@@]3(C)CC[C@@H]12
[reply] Compound metabolized

[ask] Give the measured Bacterial Biotransformation for CCC1(c2ccc(N)cc2)CCC(=O)NC1=O (centres undefined) [AMINOGLUTETHIMIDE]
[reply] Compound NOT metabolized

[ask] Give the measured Bacterial Biotransformation for CCN(C(C)=O)c1cccc(-c2ccnc3c(C#N)cnn23)c1
[reply] Compound metabolized

###

- conditionsUsed: segatella copri, 12 h, 2 µM
- Description: The drug is tested on Prevotella copri strain: DSM18205 for biotransformation. The drug concentrations were measured before and after a 12-h incubation by liquid-chromatography-coupled mass spectrometry (LC–MS)
reportedEndpoint: Bacterial Biotransformation

// below: answered compounds
- compound: "CC(C)(C#N)c1cc(Cn2cncn2)cc(C(C)(C)C#N)c1 [ANASTROZOLE]"
  Bacterial Biotransformation: "Compound metabolized"
- compound: "Cc1nc(Nc2ncc(C(=O)Nc3c(C)cccc3Cl)s2)cc(N2CCN(CCO)CC2)n1.O [DASATINIB]"
  Bacterial Biotransformation: "Compound metabolized"
- compound: "CC(C)(C)NCC(O)c1cc(Cl)c(N)c(Cl)c1 (stereo not drawn) [CLENBUTEROL]"
  Bacterial Biotransformation: "Compound NOT metabolized"
- compound: "CC(C)(C)NCC(O)COc1cccc2c1CC(O)C(O)C2 (stereo not drawn) [NADOLOL]"
  Bacterial Biotransformation: "Compound NOT metabolized"
- compound: "c1ccc([C@H]2CN3CCSC3=N2)cc1 [LEVAMISOLE]"
  Bacterial Biotransformation: "Compound NOT metabolized"
- compound: "CCS(=O)(=O)CCn1c([N+](=O)[O-])cnc1C [TINIDAZOLE]"
  Bacterial Biotransformation: "Compound metabolized"
- compound: "O=C(NC(Cc1cc(=O)[nH]c2ccccc12)C(=O)O)c1ccc(Cl)cc1 (stereo not drawn) [REBAMIPIDE]"
  Bacterial Biotransformation: "Compound NOT metabolized"
- compound: "O=C(O)CCC(=O)O.O=C(O[C@H]1CN2CCC1CC2)N1CCc2ccccc2[C@@H]1c1ccccc1 [SOLIFENACIN SUCCINATE]"
  Bacterial Biotransformation: "Compound NOT metabolized"

[ask] Give the measured Bacterial Biotransformation for CCOc1ccccc1OCCN[C@H](C)Cc1ccc(OC)c(S(N)(=O)=O)c1.Cl [TAMSULOSIN HYDROCHLORIDE]
[reply] Compound NOT metabolized

[ask] Give the measured Bacterial Biotransformation for O=C(NCc1ccccc1)OCCO [BURAMATE]
[reply] Compound NOT metabolized

[ask] Give the measured Bacterial Biotransformation for CN1C(=O)CCS(=O)(=O)C1c1ccc(Cl)cc1 (stereo not drawn) [CHLORMEZANONE]
[reply] Compound NOT metabolized

[ask] Give the measured Bacterial Biotransformation for COc1ccc2[nH]c([S+]([O-])Cc3ncc(C)c(OC)c3C)nc2n1 (stereo not drawn) [TENATOPRAZOLE]
[reply] Compound metabolized

[ask] Give the measured Bacterial Biotransformation for Nc1nc(N)nc(-c2cc(Cl)ccc2Cl)n1.O=C(O)/C=C\C(=O)O [IRSOGLADINE MALEATE]
[reply] Compound NOT metabolized

[ask] Give the measured Bacterial Biotransformation for Cc1ccc(S(=O)(=O)NC(=O)NN2CC3CCCC3C2)cc1 (stereo not drawn) [GLICLAZIDE]
[reply] Compound NOT metabolized

###

- test: The drug is tested on Bacteroides uniformis strain: ATCC8492 for biotransformation. The drug concentrations were measured before and after a 12-h incubation by liquid-chromatography-coupled mass spectrometry (LC–MS)
- conditionsUsed: 2 µM
reportedEndpoint: Bacterial Biotransformation

- molecule: "C#C[C@]1(O)CC[C@H]2[C@@H]3CCC4=Cc5oncc5C[C@]4(C)[C@H]3CC[C@@]21C"
  reportedEndpoint: "Bacterial Biotransformation"
  testValue: "Compound metabolized"
- molecule: "O=C(Nc1ccccc1)OCC(CN1CCCCC1)OC(=O)Nc1ccccc1 (centres undefined)"
  reportedEndpoint: "Bacterial Biotransformation"
  testValue: "Compound NOT metabolized"
- molecule: "CN(C)C(=O)Oc1cc(OC(=O)N(C)C)cc(C(O)CNC(C)(C)C)c1 (centres undefined)"
  reportedEndpoint: "Bacterial Biotransformation"
  testValue: "Compound NOT metabolized"
- molecule: "C=CC[C@@H]1/C=C(\\C)C[C@H](C)C[C@H](OC)[C@H]2O[C@@](O)(C(=O)C(=O)N3CCCC[C@H]3C(=O)O[C@H](/C(C)=C/[C@@H]3CC[C@@H](O)[C@H](OC)C3)[C@H](C)[C@@H](O)CC1=O)[C@H](C)C[C@@H]2OC.O"
  reportedEndpoint: "Bacterial Biotransformation"
  testValue: "Compound metabolized"
- molecule: "CCOC(=O)[C@H](CCc1ccccc1)N[C@@H](C)C(=O)N1[C@H](C(=O)O)C[C@H]2CCCC[C@@H]21"
  reportedEndpoint: "Bacterial Biotransformation"
  testValue: "Compound metabolized"

[ask] Give the measured Bacterial Biotransformation for Fc1ccc([C@@H]2CCNC[C@H]2COc2ccc3c(c2)OCO3)cc1
[reply] Compound NOT metabolized

###

- test: The drug is tested on Clostridium symbiosum strain: ATCC14940 for biotransformation. The drug concentrations were measured before and after a 12-h incubation by liquid-chromatography-coupled mass spectrometry (LC–MS)
- conditionsUsed: 2 µM
reportedEndpoint: Bacterial Biotransformation

- compoundStructureString: "CC#C[C@]1(O)CC[C@H]2[C@@H]3CCC4=CC(=O)CCC4=C3[C@@H](c3ccc(N(C)C)cc3)C[C@@]21C"
  reportedEndpoint: "Bacterial Biotransformation"
  testValue: "Compound NOT metabolized"
- compoundStructureString: "Cc1ccc(-c2cc(C(F)(F)F)nn2-c2ccc(S(N)(=O)=O)cc2)cc1"
  reportedEndpoint: "Bacterial Biotransformation"
  testValue: "Compound NOT metabolized"
